# tgt: Jak2 (a.a. 828-1132) (Homo sapiens)
# Construct: Jak2 (a.a. 828-1132); His tag (N); made in house; host or cells: insect cells (baculovirus)
# experimental.protocol: In vitro JAK kinase assay (HTRF, phosphorylation of a biotinylated peptide), JAK2, reported as JAK2/JAK1 ratio
# Assay type: biochemical
# condition.description: Assay Conditions 1 mM ATP
Where a name gives a salt, the structure may show the parent alone.
recorded.metric: JAK2/JAK1 IC50 ratio

Some molecules with known JAK2/JAK1 IC50 ratio results, for comparison:
molecule: N#CCC(C1CCN(c2nc3cccc(F)c3o2)C1)n1cc(-c2ncnc3[nH]ccc23)cn1 (single isomer, unassigned) [Example 21]
tgt: Jak2 (a.a. 828-1132) (Homo sapiens)
JAK2/JAK1 IC50 ratio: 31.8
//
molecule: N#CC[C@@H]([C@H]1CCN(c2nc3c(cc2F)CCS3)C1)n1cc(-c2ncnc3[nH]ccc23)cn1 [Example 87, bis(trifluoroacetate)]
tgt: Jak2 (a.a. 828-1132) (Homo sapiens)
JAK2/JAK1 IC50 ratio: 8.1

Answer for every listed entry: what is its JAK2/JAK1 IC50 ratio? The entries follow.
1. N#Cc1nnccc1N1CC[C@H](C(CF)n2cc(-c3ncnc4[nH]ccc34)cn2)C1 (single isomer, unassigned) [Example 116]
2. N#CC[C@@H]([C@H]1CCN(c2ccc(F)c(F)c2C#N)C1)n1cc(-c2ncnc3[nH]ccc23)cn1 [Example 60, trifluoroacetate salt]
3. N#CC[C@@H]([C@H]1CCN(c2nc(S(=O)(=O)CC(F)(F)F)c(F)cc2F)C1)n1cc(-c2ncnc3[nH]ccc23)cn1 [Example 131, trifluoroacetate]
4. N#CC[C@@H]([C@H]1CCN(c2ncc(C(F)F)nc2C#N)C1)n1cc(-c2ncnc3[nH]ccc23)cn1 [Example 138, trifluoroacetate]

Resp:
1. 6.0
2. 6.6
3. 8.1
4. 17.5

----------
# tgt: Jak2 (a.a. 828-1132) (Homo sapiens, UniProt O60674)
# Construct: Jak2 (a.a. 828-1132); His tag (N); made in house; host or cells: insect cells (baculovirus)
# Sequence (O60674 828-1132): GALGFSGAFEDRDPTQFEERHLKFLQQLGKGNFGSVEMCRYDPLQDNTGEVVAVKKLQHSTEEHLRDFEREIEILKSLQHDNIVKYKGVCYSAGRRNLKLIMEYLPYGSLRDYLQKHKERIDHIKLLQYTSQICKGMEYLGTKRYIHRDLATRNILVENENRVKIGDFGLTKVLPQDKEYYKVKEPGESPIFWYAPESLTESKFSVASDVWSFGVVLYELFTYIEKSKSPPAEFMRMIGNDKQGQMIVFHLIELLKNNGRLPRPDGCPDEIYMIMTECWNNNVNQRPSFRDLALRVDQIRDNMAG
# experimental.protocol: In vitro JAK kinase assay (HTRF, phosphorylation of a biotinylated peptide), JAK2, reported as JAK2/JAK1 ratio
# Type: biochemical
# condition.description: Assay Conditions 1 mM ATP
Counter-ions that a name gives are not always drawn.
recorded.metric: JAK2/JAK1 IC50 ratio
One number for each entry.

Look over these answered cases.
compound: N#CCC(C1CCN(c2ccc3c(n2)[S+]([O-])CC3)C1)n1ccc(-c2ncnc3[nH]ccc23)c1 (stereo not shown) [Example 35]
value.observed: 4.2

compound: N#CCC(C1CCN(c2scc(C#N)c2C#N)C1)n1ccc(-c2ncnc3[nH]ccc23)c1 (single isomer, unassigned) [81 enantiomer 2]
value.observed: 8.1

List JAK2/JAK1 IC50 ratio for every entry below, keeping the order given.
1. CS(=O)(=O)c1cccc(N2CCC(C(CC#N)n3cc(-c4ncnc5[nH]ccc45)cn3)C2)n1 (single isomer, unassigned) [Example 26]
2. CSc1nc(N2CC[C@H]([C@H](CC#N)n3cc(-c4ncnc5[nH]ccc45)cn3)C2)c(F)cc1F [Example 129]
3. N#CCC(C1CCN(c2ccc3ccsc3n2)C1)n1cc(-c2ncnc3[nH]ccc23)cn1 (single isomer, unassigned) [Example 156]
4. N#CCC(C1CCN(c2scnc2C#N)C1)n1ccc(-c2ncnc3[nH]ccc23)c1 (racemic) [Example 149-1]
5. N#CC[C@@H]([C@H]1CCN(c2cccc(C#N)c2C#N)C1)n1cc(-c2ncnc3[nH]ccc23)cn1 [Example 49, trifluoroacetate]
6. N#CCC(C1CCN(c2nc3c(O)cccc3o2)C1)n1cc(-c2ncnc3[nH]ccc23)cn1 (single isomer, unassigned) [Example 165]
7. CS(=O)(=O)c1nc(F)c(N2CC[C@H]([C@H](CC#N)n3cc(-c4ncnc5[nH]ccc45)cn3)C2)cc1F [Example 134, trifluoroacetate]

Resp:
5.2
5.9
8.0
9.9
10.2
7.1
17

Would you be so kind as to report JAK2/JAK1 IC50 ratio for each listed record?
1. N#CCC(C1CCN(c2nc3cccc(O)c3o2)C1)n1cc(-c2ncnc3[nH]ccc23)cn1 (single isomer, unassigned) [Example 161]
2. CS(=O)(=O)c1cccc(N2CCC(C(CC#N)n3cc(-c4ncnc5[nH]ccc45)cn3)C2)c1C#N (racemic) [Example 41]

Resp:
1. 24.7
2. 11

Could I get JAK2/JAK1 IC50 ratio for every one of these entries?
1. CSc1nccc(N2CCC(C(CC#N)n3cc(-c4ncnc5[nH]ccc45)cn3)C2)n1 (single isomer, unassigned) [Example 23]
2. N#CC[C@@H]([C@H]1CCN(c2ncc3sccc3c2C#N)C1)n1cc(-c2ncnc3[nH]ccc23)cn1 [Example 74]

Resp:
[2.3, 6.2]

----------
Can you tell me JAK2/JAK1 IC50 ratio for the items I'm about to list?
# tgt: Jak2 (a.a. 828-1132) (Homo sapiens)
# Construct: Jak2 (a.a. 828-1132); His tag (N); made in house; host or cells: insect cells (baculovirus)
# experimental.protocol: In vitro JAK kinase assay (HTRF, phosphorylation of a biotinylated peptide), JAK2, reported as JAK2/JAK1 ratio
# Type: biochemical
# condition.description: Assay Conditions 1 mM ATP
Structures can show the parent of a compound that is named as a salt.
Answers are plain numbers.

// for each molecule in input: emit JAK2/JAK1 IC50 ratio
1. Cn1ccc2cnc(N3CCC(C(CC#N)n4cc(-c5ncnc6[nH]ccc56)cn4)C3)nc21 (single isomer, unassigned)
2. N#CCC(C1CCN(c2ccc3c(n2)S(=O)(=O)CC3)C1)n1cc(-c2ncnc3[nH]ccc23)cn1 (single isomer, unassigned)

Resp:
1. 8
2. 14.5

For every item in the list below, what is its measured JAK2/JAK1 IC50 ratio?
1. N#CC[C@@H]([C@H]1CCN(c2ccc(C#N)c(Cl)n2)C1)n1cc(-c2ncnc3[nH]ccc23)cn1 [Example 69, trifluoroacetate salt]
2. N#CC[C@@H]([C@H]1CCN(c2ncccc2C#N)C1)n1cc(-c2ncnc3[nH]ccc23)cn1 [Example 62, trifluoroacetate salt]
3. CN(C)S(=O)(=O)Nc1nccc(N2CCC(C(CC#N)n3cc(-c4ncnc5[nH]ccc45)cn3)C2)n1 (single isomer, unassigned)
4. N#CC[C@@H]([C@H]1CCN(c2nc(Cl)c(N)cc2F)C1)n1cc(-c2ncnc3[nH]ccc23)cn1 [Example 91A, bis(trifluoroacetate)]

Resp:
[6.5, 7.1, 12.5, 6.9]

----------
# tgt: Jak2 (a.a. 828-1132) (Homo sapiens, UniProt O60674)
# Construct: Jak2 (a.a. 828-1132); His tag (N); made in house; host or cells: insect cells (baculovirus)
# experimental.protocol: In vitro JAK kinase assay (HTRF, phosphorylation of a biotinylated peptide), JAK2, reported as JAK2/JAK1 ratio
# Assay type: biochemical
# condition.description: Assay Conditions 1 mM ATP
Where a name gives a salt, the structure may show the parent alone.
Kind request: treat 9 as inclusive, so JAK2/JAK1 IC50 ratio at 9 or higher is Met, anything lower is Not met.

Example entries and their recorded answers appear below.
molecule: N#Cc1cccnc1N1CC[C@H](C(CF)n2cc(-c3ncnc4[nH]ccc34)cn2)C1 (stereo partly drawn) [Example 118, trifluoroacetate]
tgt: Jak2 (a.a. 828-1132) (Homo sapiens, UniProt O60674)
group: Not met

molecule: N#CC[C@@H]([C@H]1CCN(c2c(F)nc(F)c(F)c2C#N)C1)n1cc(-c2ncnc3[nH]ccc23)cn1 [Example 65, trifluoroacetate salt]
tgt: Jak2 (a.a. 828-1132) (Homo sapiens, UniProt O60674)
group: Met

molecule: N#CC[C@@H]([C@H]1CCN(c2scc(O)c2C#N)C1)n1cc(-c2ncnc3[nH]ccc23)cn1
tgt: Jak2 (a.a. 828-1132) (Homo sapiens, UniProt O60674)
group: Met

Req: Decide: JAK2/JAK1 IC50 ratio of COc1ncc(F)c(N2CC[C@H]([C@H](CC#N)n3cc(-c4ncnc5[nH]ccc45)cn3)C2)n1 [Example 104, trifluoroacetate salt] >= 9?
Resp: Not met

Req: Given `N#CC[C@@H]([C@H]1CCN(c2ccc(F)c(F)n2)C1)n1cc(-c2ncnc3[nH]ccc23)cn1.O=C(O)C(F)(F)F` , state whether its JAK2/JAK1 IC50 ratio is at least 9.
Resp: Not met

Req: Determine whether this molecule has JAK2/JAK1 IC50 ratio no lower than 9: N#Cc1c(N2CC[C@H](C(CF)n3cc(-c4ncnc5[nH]ccc45)cn3)C2)ncc2c1S(=O)(=O)CC2 (single isomer, unassigned)
Resp: Met

----------
# tgt: Jak2 (a.a. 828-1132) (Homo sapiens)
# Construct: Jak2 (a.a. 828-1132); His tag (N); made in house; host or cells: insect cells (baculovirus)
# experimental.protocol: In vitro JAK kinase assay (HTRF, phosphorylation of a biotinylated peptide), JAK2, reported as JAK2/JAK1 ratio
# Assay type: biochemical
# condition.description: Assay Conditions 1 mM ATP
Counter-ions that a name gives are not always drawn.
recorded.metric: JAK2/JAK1 IC50 ratio
Give bare numbers.

molecule: N#CC[C@@H]([C@H]1CCN(c2cccc(F)c2C#N)C1)n1cc(-c2ncnc3[nH]ccc23)cn1 [Example 54, trifluoroacetate salt]
JAK2/JAK1 IC50 ratio: 4.6

Answer for every listed entry: what is its JAK2/JAK1 IC50 ratio? The entries follow.
1. N#CC[C@@H]([C@H]1CCN(c2ncc(Br)nc2C#N)C1)n1cc(-c2ncnc3[nH]ccc23)cn1
2. N#CC[C@@H]([C@H]1CCN(c2nc(Cl)c(F)cc2N)C1)n1cc(-c2ncnc3[nH]ccc23)cn1.O=C(O)C(F)(F)F.O=C(O)C(F)(F)F [Example 91B]
3. N#CC[C@@H]([C@H]1CCN(c2scc(Br)c2C#N)C1)n1cc(-c2ncnc3[nH]ccc23)cn1
4. N#CC[C@@H]([C@H]1CCN(c2ncsc2C#N)C1)n1cc(-c2ncnc3[nH]ccc23)cn1
5. COCc1cccc(N2CC[C@H]([C@H](CC#N)n3cc(-c4ncnc5[nH]ccc45)cn3)C2)c1C#N

Resp:
1: 14.2; 2: 7.0; 3: 39.1; 4: 6.7; 5: 35.7
